assay: MT1-MMP gene expression reporter suppression – cell-based, luciferase reporter, luminescence (AID 618); conditions: MT1-MMP promoter luciferase reporter cells;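 also: actives suppress MT1-MMP promoter-driven transcription so potencies describe inhibitors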
In all, about 87,000 compounds went through this assay and about 540 (0.62%) were called active. No rule for the calls is given here. For the sample, actives were picked, then their nearest neighbours and some compounds at random. Potency and affinity values are given separately.
Outcomes you can answer with include only these: active, inactive

Completed entries (count: 5):
Cc1nc2c(=O)n(C)c(=O)nc-2n(C)n1    active
Nc1ccccc1C(=O)OC1CSC1    inactive
COc1cccc(OC)c1C1=NCC(=O)Nc2c1oc1ccc(Br)cc21    active
CCC(C)OC(=O)c1c(N)n(Cc2cccs2)c2nc3ccccc3nc12 (stereo not drawn)    inactive
Cc1ccc(N(C)C(=O)Oc2cccc3cccnc23)cc1    inactive

Okay, now this compound:
Enquiry: # fetch the recorded call for "O=C1CN=C(c2ccccc2)c2oc3ccc(Br)cc3c2N1" here
Return: inactive

Every entry's value here was drawn from PubChem BioAssay AID618.
